- Tested on: T1, EsCas13d, nuclease-dead (Eubacterium siraeum, UniProt B0MS50, R295A;H300A;R849A;H854A)
- T1 sequence: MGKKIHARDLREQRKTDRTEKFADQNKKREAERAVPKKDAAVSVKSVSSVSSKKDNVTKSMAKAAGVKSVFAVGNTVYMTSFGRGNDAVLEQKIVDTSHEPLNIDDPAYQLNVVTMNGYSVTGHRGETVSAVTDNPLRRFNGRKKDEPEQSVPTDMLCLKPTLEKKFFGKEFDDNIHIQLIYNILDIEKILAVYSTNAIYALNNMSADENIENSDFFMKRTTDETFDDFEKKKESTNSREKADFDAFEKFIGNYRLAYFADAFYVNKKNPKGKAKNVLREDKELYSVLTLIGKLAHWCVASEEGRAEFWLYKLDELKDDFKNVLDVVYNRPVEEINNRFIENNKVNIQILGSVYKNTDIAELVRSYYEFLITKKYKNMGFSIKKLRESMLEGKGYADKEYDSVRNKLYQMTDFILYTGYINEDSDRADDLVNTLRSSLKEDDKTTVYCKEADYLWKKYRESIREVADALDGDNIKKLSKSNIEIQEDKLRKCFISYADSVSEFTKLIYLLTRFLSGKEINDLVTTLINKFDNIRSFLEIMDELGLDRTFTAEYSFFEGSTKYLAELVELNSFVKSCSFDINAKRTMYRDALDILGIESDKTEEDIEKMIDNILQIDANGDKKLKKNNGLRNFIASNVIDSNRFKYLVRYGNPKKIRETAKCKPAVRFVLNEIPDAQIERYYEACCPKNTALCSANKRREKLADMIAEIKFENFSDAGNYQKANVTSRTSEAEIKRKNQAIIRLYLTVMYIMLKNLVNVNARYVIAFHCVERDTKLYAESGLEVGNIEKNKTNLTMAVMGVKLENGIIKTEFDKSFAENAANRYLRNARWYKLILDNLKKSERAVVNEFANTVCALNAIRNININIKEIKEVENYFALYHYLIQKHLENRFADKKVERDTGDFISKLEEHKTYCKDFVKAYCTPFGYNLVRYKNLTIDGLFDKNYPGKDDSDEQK
- Assay explanation: crRNA (strand 1, pre-loaded); Mg2+; 40 mM Tris-HCl pH 7.5, 150 mM NaCl, 6 mM MgCl2, 1 mM DTT, 0.1% Tween-20, 0.2 mg/ml BSA; 25 C; 10 min per concentration, then washed
- Assay conditions: tags: His6-TwinStrep-SUMO cleaved; N-terminal SNAP kept (SNAP-Surface 488); label: 3' end held by stalled T7 RNA polymerase
Property label: Kd (nM)
Answer with a number only, understood to be in nM.

[[record]]
binder = "target 1 insC 3' of 13,insG 3' of 11 (mixed) RNA 1: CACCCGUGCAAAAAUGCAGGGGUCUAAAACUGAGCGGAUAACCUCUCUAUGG RNA 2: GGGAAUGGAUCCACAUCUACGAAUUCGUACCAUAGAGAGCGUGUAUCCGCUCACCGAGAUCGGAAGAGCACACGU"
units = "nM"
assay_result = 28.5

[[record]]
binder = "target 2 MT 5'PFS UCG 3'PFS AUA (mixed) RNA 1: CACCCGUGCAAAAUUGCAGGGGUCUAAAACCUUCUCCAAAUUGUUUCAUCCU RNA 2: GGGAAUGGAUCCACAUCUACGAAUUCUCGAGGAUGAAACAAUUUGGAGAAGAUAAGAUCGGAAGAGCACACGU"
units = "nM"
assay_result = 29


In the following, a different binder is considered.
Query: What value of Kd has been reported for the following binder? target 3 U2G,U8G (mixed) RNA 1: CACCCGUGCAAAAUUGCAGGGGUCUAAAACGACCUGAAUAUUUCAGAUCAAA RNA 2: GGGAAUGGAUCCACAUCUACGAAUUCGUUUUUGAUCUGAAAUAGUCAGGGCUGCAGAUCGGAAGAGCACACGU
Reply: 47
